Every entry's value here was drawn from patent US20250263469A1.

# target_entity: SARS-CoV-2 Spike on pseudotyped virus (PsV) (SARS-CoV-2, UniProt P0DTC2 14-1273)
# test_protocol: cell-based or functional assay
// reported Median IC50, SARS-CoV-2 PsV neutralization for each item listed

mAb 158 (antibody, V domains shown) VH: QVQLVQSGAEVKKPGASVKVSCKASGYTFTGYYMHWVRQAPGQGLEWMGWINPLNGGTNFAPKFQGRVTMTRDTSTSTVYMELSSLRSEDTAVYYCARDPGGSYSNDAFDIWGQGTLVTVSS VL: DIQMTQSPSSLSASVGDRVTITCRASQSISRYLNWYQQKPGKAPKLLIYDASNLESGVPSRFSGSGSGTDFTLTISSLQPEDFATYYCQQANSFPLTFGGGTKVDIKR :: > 50 µg/mL

Moving on to another binder below.
# Median IC50, SARS-CoV-2 PsV neutralization of mAb 178 (antibody, V domains shown) VH: QVQLVQSGAEVKKPGASVKVSCKASGYTFTDYHMHWVRQAPGQGLEWMGWINPNSGGTNYAQKFQGRVTMTRDTSTSTVYMELSSLRSEDTAVYYCARDISSWYEITKFDPWGQGTLVTVSS VL: EIVMTQSPATLSVSPGERATLSCKASQSVSGTYLAWYQQKPGQAPRLLIYGASTRATGIPARFSGSGSGTEFTLTISSLQSEDFAVYYCLQTHSYPPTFGQGTKVEIKR = > 50 µg/mL
